Tested Target: GRIP2_6, Q9C0E4
Sequence (Q9C0E4 648-740): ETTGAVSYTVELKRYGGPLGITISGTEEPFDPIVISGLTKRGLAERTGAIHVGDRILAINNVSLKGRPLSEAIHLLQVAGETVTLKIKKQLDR
Protocol: holdup assay
Design: key: below the threshold = too weak to quantify, mostly under pKd 3.1 to 4
Condition: plain residues with an end cap or a label only (N-terminal biotin on a linker: ttds)
Measured Attribute: pKd

GQDSREETQL [KCNT2, Q6UVM3]    below the threshold
STLTIFETAL [ABCC4, O15439]    below the threshold
IDNDTESTAL [ARHGAP17, Q68EM7]    below the threshold
RSLEEEESQL [GRASP, Q7Z6J2]    3.64

Prompt line: Item under review: SRPQRTQTQV [HPV67-E6, A4U7F2] . Reported pKd?
Response line: below the threshold
